Data origin: paper PMC3946399

Molecular target: UniProt P04191
Sequence (P04191 1-994 isoform P04191-2): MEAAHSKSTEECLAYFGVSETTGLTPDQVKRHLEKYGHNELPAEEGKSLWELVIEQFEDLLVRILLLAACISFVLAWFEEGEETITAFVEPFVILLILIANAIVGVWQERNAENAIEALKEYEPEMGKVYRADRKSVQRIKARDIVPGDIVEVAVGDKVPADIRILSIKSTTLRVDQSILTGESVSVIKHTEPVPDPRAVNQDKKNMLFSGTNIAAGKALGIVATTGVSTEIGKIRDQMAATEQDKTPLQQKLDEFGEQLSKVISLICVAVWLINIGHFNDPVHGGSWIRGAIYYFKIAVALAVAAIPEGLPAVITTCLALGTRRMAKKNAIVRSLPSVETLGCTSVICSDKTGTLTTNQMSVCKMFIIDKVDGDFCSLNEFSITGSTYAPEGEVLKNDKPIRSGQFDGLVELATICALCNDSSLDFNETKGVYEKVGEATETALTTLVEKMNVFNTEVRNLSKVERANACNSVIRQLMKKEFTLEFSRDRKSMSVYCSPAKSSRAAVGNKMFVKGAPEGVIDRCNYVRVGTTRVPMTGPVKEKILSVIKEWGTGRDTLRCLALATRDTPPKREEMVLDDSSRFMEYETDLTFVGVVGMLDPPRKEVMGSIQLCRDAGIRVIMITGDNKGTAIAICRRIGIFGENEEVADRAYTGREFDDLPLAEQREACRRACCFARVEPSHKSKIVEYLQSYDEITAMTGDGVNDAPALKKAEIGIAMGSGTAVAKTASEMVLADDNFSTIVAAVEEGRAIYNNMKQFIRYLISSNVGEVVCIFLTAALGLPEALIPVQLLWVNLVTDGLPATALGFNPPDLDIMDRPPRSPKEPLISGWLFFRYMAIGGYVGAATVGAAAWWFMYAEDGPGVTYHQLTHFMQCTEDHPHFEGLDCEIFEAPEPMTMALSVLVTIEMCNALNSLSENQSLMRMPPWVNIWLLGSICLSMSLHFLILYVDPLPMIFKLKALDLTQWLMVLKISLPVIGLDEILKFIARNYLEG

- compound: "CCOC(=O)CC1C(C(=O)OCC)=C(N)Oc2ccc(-c3cc(OC)cc(OC)c3)cc21 (stereo not shown)"
  unit.label: "µM"
  IC50: 25
